# target: T1, mouse Siglec15-his protein (mouse)
# T1 construct: In house made
# T1 chain: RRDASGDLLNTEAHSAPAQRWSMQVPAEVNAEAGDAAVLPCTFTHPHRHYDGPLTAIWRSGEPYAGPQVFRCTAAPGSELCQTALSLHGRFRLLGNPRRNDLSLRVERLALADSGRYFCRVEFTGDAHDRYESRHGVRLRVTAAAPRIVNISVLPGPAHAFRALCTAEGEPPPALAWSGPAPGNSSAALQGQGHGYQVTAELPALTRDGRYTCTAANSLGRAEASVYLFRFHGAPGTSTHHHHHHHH
# testSummary: SPR Biacore T200, antibody captured by anti-human IgG, antigen as analyte, 1:1 fit
# Source text: Briefly, goat anti-human IgG (GE healthcare, Cat #BR100839, Human Antibody Capture Kit) was covalently linked to a CM5 chip (carboxy methyl dextran coated chip, GE healthcare, Cat #BR-1005-30) via primary amines, using a standard amine coupling kit provided by Biacore (GE healthcare, Pittsburgh, Pa., USA). Un-reacted moieties on the biosensor surface were blocked with ethanolamine. […]
testReadout: koff (s⁻¹)

1) A2A5C7E8-2 (antibody, human IgG1, kappa, V domains shown, Variant of A2A5C7E8 modified in VH CDR2 (X1 = E)) VH: EVQLVQSGAEVKKPGESLRISCKGSGYSFTTYWISWVRQMPGKGLEWMGLIDPSESYTNYSPSFQGHVTISTDKSISTAYLQWSSLKASDTAMYYCARGGYYGSEEDYWGQGTLVTVSS VL: EIVLTQSPGTLSLSPGERATLSCRASQSVSSSRLAWFQQKSGQAPRLLIFDASSRATGIPDRFSGSGSGTDFTLTISRLEPEDFAVYYCQQYGSSPRTFGQGTKVEFKR :: 0.000495
2) A2A5C7E8-3 (antibody, human IgG1, kappa, V domains shown, Variant of A2A5C7E8 modified in VH CDR2 (X2 = K)) VH: EVQLVQSGAEVKKPGESLRISCKGSGYSFTTYWISWVRQMPGKGLEWMGLIDPSDSYTNYSPSFKGHVTISTDKSISTAYLQWSSLKASDTAMYYCARGGYYGSEEDYWGQGTLVTVSS VL: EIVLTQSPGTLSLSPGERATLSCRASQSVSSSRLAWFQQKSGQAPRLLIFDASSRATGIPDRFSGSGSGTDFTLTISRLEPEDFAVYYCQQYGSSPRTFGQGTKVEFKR :: 0.000165
3) anti-Siglec15 benchmark (ch5G12) (antibody, human IgG1, kappa, V domains shown, ch5G12 (US 20190202912A1); also called BM; Siglec15-ch5G9) VH: QVQLQQPGAELVKPGASVKMSCKASGYTFTSYWITWVIQRPGQGLEWIGDIYCGSDTMHYNEKFKNKATLTVDTSSSTAYMQLSSLTSEDSAVYYCARWWDYGSSYDYFDYWGQGTTLTVSS VL: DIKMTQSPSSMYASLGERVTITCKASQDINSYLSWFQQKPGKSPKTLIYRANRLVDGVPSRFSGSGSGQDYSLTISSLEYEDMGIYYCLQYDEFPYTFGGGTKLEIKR :: 0.000931
4) A2A5C7E8 (antibody, V domains shown, Fully human antibody from transgenic mouse hybridoma; also called A2A5C7E8-1) VH: EVQLVQSGAEVKKPGESLRISCKGSGYSFTTYWISWVRQMPGKGLEWMGLIDPSDSYTNYSPSFQGHVTISTDKSISTAYLQWSSLKASDTAMYYCARGGYYGSEEDYWGQGTLVTVSS VL: EIVLTQSPGTLSLSPGERATLSCRASQSVSSSRLAWFQQKSGQAPRLLIFDASSRATGIPDRFSGSGSGTDFTLTISRLEPEDFAVYYCQQYGSSPRTFGQGTKVEFK :: 0.000187
